Target: APOL1 G2 (Homo sapiens, UniProt O14791, DEL388-389)
Sequence (O14791 with tags, fused parts or gaps DEL388-389): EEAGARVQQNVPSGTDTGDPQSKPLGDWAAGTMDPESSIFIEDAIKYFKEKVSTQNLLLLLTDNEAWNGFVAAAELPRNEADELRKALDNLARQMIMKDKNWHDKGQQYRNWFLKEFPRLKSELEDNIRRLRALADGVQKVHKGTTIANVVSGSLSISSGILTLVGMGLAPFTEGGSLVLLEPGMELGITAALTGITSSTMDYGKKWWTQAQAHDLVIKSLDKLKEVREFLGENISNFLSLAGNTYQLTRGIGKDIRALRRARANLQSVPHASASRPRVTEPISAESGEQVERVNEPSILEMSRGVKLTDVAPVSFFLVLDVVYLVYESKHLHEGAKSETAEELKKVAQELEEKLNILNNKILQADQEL
Experiment: Rescue of HEK293 cell death caused by overexpression of APOL1 (CellTiter-Glo luminescence), HEK293/T-REx APOL1 G2/clone #2
Settings: reversal of cell death caused by overexpression of APOL1; geometric mean of at least 2 assay runs, † = single assay run (technical duplicate)
The threshold is 500 nM. Values of EC50 beneath it are tagged satisfied; values meeting or exceeding it are tagged not satisfied.

> print(dat)
                                   compound          class
1  CN(c1ccc(OC[C@@H](O)CN2CCOC(c3cccc(Cl)c3)C2)cc1)S(C)(=O)=O (single isomer, unassigned) [Compound 82]  not satisfied
2  CN(c1ccc(OCC2CN(CCc3cccc(Cl)c3)CCCO2)cc1)S(C)(=O)=O (single isomer, unassigned) [Compound 11]  not satisfied
3  CC1CC(COc2ccc(S(C)(=O)=O)cc2)CN1CCc1cccc(C#N)c1 (single isomer, unassigned) [Compound 139]  not satisfied
4  COC(CN1CCC[C@@H](COc2ccc(S(C)(=O)=O)cc2)C1)c1cccc(Cl)c1 (single isomer, unassigned) [Compound 26]  not satisfied
5  CC1CC(COc2ccc(S(C)(=O)=O)cc2)CN1CCc1cc(Cl)cc(C#N)c1 (single isomer, unassigned) [Compound 204]      satisfied
6  C[C@@H]1CN(CCc2cc(Br)cc(C#N)c2)C[C@H]1COc1ccc(S(C)(=O)=O)cc1      satisfied

---

Target: APOL1 G2 (Homo sapiens, UniProt O14791, DEL388-389)
Construct: expressed in transfected cells; host or cells: HEK293 T-REx clonal lines: HEK T-REx/GCaMP6f/APOL1 G2 K6.3 in A1, HEK293/T-REx APOL1 G2/clone #2 in A2
Assay: APOL1 calcium transport inhibition assay (GCaMP6f calcium influx, FLIPR) in HEK T-REx/GCaMP6f/APOL1 G2 K6.3 cells
Assay type: cell-based
Conditions: inhibition of APOL1-mediated calcium influx; geometric mean of at least 2 assay runs, † = single assay run (technical duplicate)
Rule: AC50 below 900 nM gives 1 (yes). Equal to or above 900 nM gives 0 (no).

> print(dat)
                                   compound    class
1  CN(c1ccc(OC[C@@H]2CCN(CCc3cccc(Cl)c3)C2)cc1)S(C)(=O)=O [Compound 50]   0 (no)
2  CN(c1ccc(OC[C@@H](O)CN[C@H]2C[C@H](c3cccc(Cl)c3)C2)cc1)S(C)(=O)=O [Compound 65]  1 (yes)
3  CN(c1ccc(OC[C@@H](O)CN2CCOC(c3cccc(Cl)c3)C2)cc1)S(C)(=O)=O (stereo partly shown) [Compound 80]   0 (no)
4  C[C@@H]1CN(CC(O)c2cc(Cl)cc(C#N)c2)C[C@H]1COc1ccc(S(C)(=O)=O)cc1 (stereo partly shown) [Compound 120]  1 (yes)
5  C[C@@]1(O)CN(CCc2cccc(Cl)c2)C[C@H]1COc1ccc(S(C)(=O)=O)cc1 (racemic) [Compound 205]  1 (yes)
6  CC(Cc1cccc(Cl)c1)NC[C@H](O)COc1ccc(N(C)S(C)(=O)=O)cc1 (single isomer, unassigned) [Compound 95]   0 (no)
7  CC(CN1C[C@@H](COc2ccc(S(C)(=O)=O)cc2)[C@H](C)C1)c1cc(Cl)cc(C#N)c1 (stereo partly shown) [Compound 146]   0 (no)
